Where these numbers come from: patent US20210380703A1

- Target entity: T1, human ACVR2A (human, UniProt P27037 20-135, limits assumed); further: test concentration or dose not given here
- T1 construct: coated antigen of the initial ELISA; also called activin receptor, type II A
- T1 sequence (P27037 20-135 limits assumed): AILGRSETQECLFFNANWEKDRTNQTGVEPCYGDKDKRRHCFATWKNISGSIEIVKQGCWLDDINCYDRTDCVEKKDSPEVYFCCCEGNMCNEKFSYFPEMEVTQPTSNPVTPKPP
- Assay: ELISA
Test readout: optical density (OD)
Express the result in OD but write the number alone.

Binder	optical density / OD
371_H04 (antibody, V domains shown, Group III) VH: EVQLLESGGGLVQPGGSLRLSCAASGFTFSSYGMNWVRQAPGKGLEWVSNINYNGGYTGYADSVKGRFTISRDNSKNTLYLQMNSLRAEDTAVYYCARGANWHDTALDYWGQGTLVTVSS VL: DIQMTQSPSSLSASVGDRVTITCRASQSILTYLNWYQQKPGKAPKLLIYAATSRASGVPSRFSGSGSGTDFTLTISSLQPEDFATYYCQQSYNSPLTFGGGTKVEIK	3.26
374_B03 (antibody, V domains shown, Group III) VH: EVQLLESGGGLVQPGGSLRLSCAASGFTFDSYSMNWVRQAPGKGLEWVSGINYNGGYTSYADSVKGRFTISRDNSKNTLYLQMNSLRAEDTAVYYCARGANWHDTALDYWGQGTLVTVSS VL: DIQMTQSPSSLSASVGDRVTITCRASQSILTYLNWYQQKPGKAPKLVIYAATSRASGVPSRFSGSGSGTDFTLTISSLQPEDFATYYCQQSYDSPLTFGGGTKVEIK	3.69
374_G08 (antibody, V domains shown, Group III) VH: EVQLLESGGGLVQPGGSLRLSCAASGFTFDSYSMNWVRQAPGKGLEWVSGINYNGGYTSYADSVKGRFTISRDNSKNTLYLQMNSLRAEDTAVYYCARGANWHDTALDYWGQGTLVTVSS VL: DIQMTQSPSSLSASVGDRVTITCRASQSILTYVNWYQQKPGKAPKLVIYAATSRASGVPSRFSGSGSGTDFTLTISSLQPEDFATYYCQQSYDSPLTFGGGTKVEIK	3.71
373_G08 (antibody, V domains shown, Group III) VH: EVQLLESGGGLVQPGGSLRLSCAASGFTFDSYSMNWVRQAPGKGLEWVSNINYNGGYTSYADSVKGRFTISRDNSKNTLYLQMNSLRAEDTAVYYCARGANWHDTALDYWGQGTLVTVSS VL: DIQMTQSPSSLSASVGDRVTITCRASQSILTYLNWYQQKPGKAPKLLIYAATSLASGVPSRFSGSGSGTDFTLTISSLQPEDFATYYCQQSYDSPLTFGGGTKVEIK	3.65

Now, please, on to the next binder.
Field request: optical density | item: 368_H05 (antibody, V domains shown, Group III) VH: EVQLLESGGGLVQPGGSLRLSCAASGFTFSSYSMNWVRQAPGKGLEWVANINYNGGYKSYADSVKGRFTISRDNSKNTLYLQMNSLRAEDTAVYYCARGANWHDTHLDYWGQGTLVTVSS VL: DIQMTQSPSSLSASVGDRVTITCRASQSIVSYVNWYQQKPGKAPKLVIYATTSRASGVPSRFSGSGSGTDFTLTISSLQPEDFATYYCQQSYESPLTFGGGTKVEIK 1.95
